Molecular target: T1, biotinylated APRIL (Homo sapiens (Human), UniProt O75888 105-250, biotinylated using NHS-biotin at a molar ratio of 20:1 biotin:APRIL)
T1 construct: also called bio-APRIL
T1 sequence: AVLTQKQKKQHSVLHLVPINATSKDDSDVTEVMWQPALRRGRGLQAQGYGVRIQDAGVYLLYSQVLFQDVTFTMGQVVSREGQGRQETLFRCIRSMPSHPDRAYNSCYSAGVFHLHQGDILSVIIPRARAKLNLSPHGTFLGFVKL
Test: scFv inhibition of bio-APRIL (50 ng/ml) binding to coated TACI fusion protein, streptavidin-DELFIA; partial inhibition
pIC50: −log10 of the molar value.
In this section we review reported pIC50 values for a set of binders.

{"binder": "A034H05 (scFv) scFv: EVQLVQSGAEVKKPGSSVKVSCKVSGGSFPNYAINWVRQAPGQGLEWMGSLVPVFLTPNYAERFQDRVTITADESTSTAYMELRSLRSDDTAVFYCARSGGDGYRDYGMDLWGRGTLVTVSSGGGGSGGGGSGGGGSAQSVLTQPPSASGTPGQRVTISCSGSSSNIGRNTVNWFQQLPGTAPKLLIYSSNQRPSGVPDRFAGSKSGTSASLAISGLQSEDEADYYCAAWDDSLNGLVFGGGTKLTVLG", "pIC50": 7.89}
{"binder": "A053H04 (scFv) scFv: EVQLVQSGAEVKKPGSSVKVSCKASGGTFSNYAISWVRQAPGQGLEWMGGIIPLFDTPNYAQKFQGRVTITADESTSTAYMELSSLRSEDTAVYYCARGNTGPRPFDPWGKGTTVTVSSGGGGSGGGGSGGGGSAQAVLTQPSSVSGAPGQRVTVSCTGSSSNIGAGYEVNWYQQLPGTAPKLLIYGDTNRPSGVPDRFSGSKSGTSASLAITGLQAEDEANYYCQSYDSGPGGPVVFGGGTKLTVLG", "pIC50": 6.86}
{"binder": "A034G03 (scFv) scFv: QVQLQQSGAEVKKPGSSVKVSCKASGGTFSNYAISWVRQAPGQGLEWMGGIIPLFDTPNYAQKFQGRVTITADESTSTAYMELSSLRSEDTAVYYCARGNTGPRPFDPWGQGTLVTVSSGGGGSGGGGSGGGGSAQAVLTQPSSVSGAPGQRVTISCSATSPNIGAGDEIHWYQVSPGKAPKLLIYGDIKRPSGVSDRFSGSKSGTTASLAITGLRPEDEADYYCQSYDRTLSGSVVFGGGTKVTVLG", "pIC50": 7.44}
